Protocol: Metabolic stability in human hepatic microsome
Assay type: in vitro ADME
Particulars: microsomes, pH 7.4; human hepatic microsome, NADPH(+); read-out: CL NADPH(+)
Positions of bridges follow the written chain, without caps; N, C: chain ends. Non-standard residues stand in square brackets, D forms with d. Residues, ends and D or L forms follow the SMILES beside them. *: point of attachment. NMeF = CN[C@@H](Cc1ccccc1)C(=O)O; NMeL = CN[C@@H](CC(C)C)C(=O)O; NMeV = CN[C@H](C(=O)O)C(C)C; NMeA = CN[C@@H](C)C(=O)O; Piperidide = C1CCN(*)CC1; Sar = CNCC(=O)O
Property name: microsomal CLint at 1 uM (µL/min/mg)
Answer in µL/min/mg, number only, no unit symbol.

>  <Compound>
CC(C)C[C@@H]1NC(=O)[C@H](CC(C)C)N(C)C(=O)[C@H](C)N(C)C(=O)[C@H](Cc2ccccc2)NC(=O)[C@H](C(C)C)N(C)C(=O)CNC(=O)[C@H]([C@@H](C)O)NC(=O)[C@H](C)N(C)C(=O)[C@H](CC(C)C)N(C)C(=O)[C@H](C)N(C)C(=O)C[C@@H](C(=O)N(C)[C@@H](Cc2ccccc2)C(=O)N[C@@H](C)C(=O)N2CCCCC2)NC1=O [DP-181] ([NMeA][NMeL][NMeA]TG[NMeV]F[NMeA][NMeL]LD[NMeF]A-Piperidide; lactam N-11)

>  <microsomal CLint at 1 uM / µL/min/mg>
13

$$$$

Noted for CC[C@H](C)[C@@H]1NC(=O)[C@H](C)NC(=O)C[C@@H](C(=O)N2CCCCC2)NC(=O)[C@H](Cc2ccccc2)NC(=O)[C@H](C)NC(=O)[C@H]([C@@H](C)O)NC(=O)[C@H](Cc2ccccc2)NC(=O)[C@H](CC(C)C)N(C)C(=O)[C@H](CC(C)C)NC(=O)[C@H](Cc2ccccc2)NC(=O)[C@H](CC(C)C)NC1=O [DP-320] (AILFL[NMeL]FTAFD-Piperidide; lactam N-11) : its microsomal CLint at 1 uM reads 36

Noted for CC(C)C[C@H]1C(=O)N(C)[C@@H](CC(C)C)C(=O)N(C)[C@@H](Cc2ccccc2)C(=O)N[C@H](C(=O)N2CCCCC2)CC(=O)N[C@@H](C(C)C)C(=O)N(C)CC(=O)N[C@@H]([C@@H](C)O)C(=O)N1C [DP-719] (V[Sar]T[NMeL][NMeL][NMeF]D-Piperidide; lactam N-7) : its microsomal CLint at 1 uM reads 218
